Where do the numbers come from? From paper doi:10.1101/718155.

Biological target: S100A10
Test: FP; direct
assay_endpoint: Kd (µM)

I: VLQTWLQDLLRRGLVRAAQ [TRPM4 (129-147) peptide]
II: RRLLFYKYVYKR [NCX1 (254-265) peptide]
Kd comparison. Which is larger, I or II ? Give the label under which the chosen entry appears.
II
